measured.target: P-selectin (PS-Rg) (Homo sapiens) (UniProt P16109)
Sequence: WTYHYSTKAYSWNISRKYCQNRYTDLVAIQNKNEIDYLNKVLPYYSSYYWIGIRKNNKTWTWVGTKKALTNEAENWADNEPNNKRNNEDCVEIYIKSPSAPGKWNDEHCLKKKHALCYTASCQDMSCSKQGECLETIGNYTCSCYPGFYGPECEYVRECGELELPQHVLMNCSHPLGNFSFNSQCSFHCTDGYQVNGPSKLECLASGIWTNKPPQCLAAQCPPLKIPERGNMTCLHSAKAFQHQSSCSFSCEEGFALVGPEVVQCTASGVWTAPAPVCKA
test.protocol: filter
experimental.setup: 2'-NH2 C and U; 37 C
pKd: −log10 of the molar value.
Listing: pKd of selected sequences

polymer.sequence	relation.sign	pKd
GGGAGACAAGAAUAAACNCUCAACGAAAUAGAAGGAACAGAAGAAUGGBGAWGNGGGAAAUGGCAACGAAUUCGACAGGNGGCUCACAACAGGC [PA321]	=	8.10
GGGAGACAAGAAUAAACGCUCAAGUACRCAGUGAGCAGAAGCAGAGAGACUUGGGAUGGGAUGAAAUGGKCUUCGACAGGAGGCUCACAACAGGC [PA467]	=	7.62
GGGAGACAAGAAUAAACGCUCAAAAGGUGCCGGGUUGGAGGGGUAGCAAGAAAUGGCUAGGGCGCASGAUUCGACAGGNGGCUCACAACAGGC [PA339]	=	7.87
GGGAGACAAGAAUAAACNCUCAAGCCCCAAGCAAGUGAGCAUCCGCAACAGGGAAGAAGACAGACGAGUGAUUCGACAGGAGGCUCACAACAGGC [PA473]	=	9.44
GGGAGACAAGAAAUAAACNCUCAAGCCCCAAACGCAAGUGAGCAUCCGCAACAGGGAAGAAGACAGAUGAAUGAUUCGACAGGAGGCUCACAACAGGC [PA466]	=	9.37
GGGAGACAAGAAUAAACGCUCAANNNGAGGAAGGGCACGCAAGGAAACAAAACACAAAGCAGAAGUAGUAAGAUUCGACAGGAGGCUCACAACAGGC [PA465]	<	7.30
